Target system: CDK2/Cyclin A2 (Homo sapiens) (UniProt P24941+P20248)
Measurement conditions: dose 100.0 nM, time 10.0 min
Each entry below carries its recorded inhibition.
Use % as the unit, but write only the number.

Here are 6 compounds together with their reported answers.
Smiles entry	Reading unit	Measurement
O=C(CCCCCCO/N=C1/C(=C2/C(=O)Nc3ccccc32)Nc2ccc(Br)cc21)NO	%	0.5
COc1ccc2c(c1)C(=N\OCCCCCCC(=O)NO)/C(=C1/C(=O)Nc3ccccc31)N2	%	5.9
O=C(CCCCCCO/N=C1/C(=C2/C(=O)Nc3ccc(Br)cc32)Nc2ccccc21)NO	%	5
Cc1ccc2c(c1)/C(=C1/Nc3ccccc3/C1=N\OCCCCCCC(=O)NO)C(=O)N2	%	18.6
O=C(CCCCCCO/N=C1/C(=C2/C(=O)Nc3ccccc32)Nc2ccccc21)NO	%	14.6
COc1ccc2c(c1)/C(=C1/Nc3ccccc3/C1=N\OCCCCCCC(=O)NO)C(=O)N2	%	54

As a next step, examine the compound that follows.
Using the record for O=C(CCCCCCO/N=C1/C(=C2/C(=O)Nc3ccc(F)cc32)Nc2ccccc21)NO , report its inhibition. 45.4
